B1: CDS2 (parent)
chain: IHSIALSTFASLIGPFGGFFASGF

# Variants of: B1
# protocol: protein stability index of a GFP-peptide fusion (GPS, HEK-293T) (PSI 1-6); higher = more stable;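 also: lentivirally expressed fusions sorted by FACS into six bins by GFP to DsRed ratio, PSI derived from sequencing read proportions per bin multiplied by bin number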
# protocol_conditions: c terminus: a fixed tail appended
Quick list: protein stability index per entry.

monomer_sequence	measured_attribute	reading
IHSIALSTFASLIGPFGGFFASGQ	protein stability index	2.45
IHSIALSTFLSLIGPFGGFFASGF	protein stability index	2.98

Query: protein stability index; subject: IHSMALSTFASLIGPFGGFFASGF
2.86

Query: protein stability index; subject: IHSIALSTFASLIGPFGVFFASGF
3.83
